- TESTED_TARGET: T1, human CD30, native, expressed on cells (human)
- T1 construct: also called native CD30; CD30 on L540, L428, A431/CD30, Karpas299, SUDHL-1 and other CD30-positive cells
- T1 chain: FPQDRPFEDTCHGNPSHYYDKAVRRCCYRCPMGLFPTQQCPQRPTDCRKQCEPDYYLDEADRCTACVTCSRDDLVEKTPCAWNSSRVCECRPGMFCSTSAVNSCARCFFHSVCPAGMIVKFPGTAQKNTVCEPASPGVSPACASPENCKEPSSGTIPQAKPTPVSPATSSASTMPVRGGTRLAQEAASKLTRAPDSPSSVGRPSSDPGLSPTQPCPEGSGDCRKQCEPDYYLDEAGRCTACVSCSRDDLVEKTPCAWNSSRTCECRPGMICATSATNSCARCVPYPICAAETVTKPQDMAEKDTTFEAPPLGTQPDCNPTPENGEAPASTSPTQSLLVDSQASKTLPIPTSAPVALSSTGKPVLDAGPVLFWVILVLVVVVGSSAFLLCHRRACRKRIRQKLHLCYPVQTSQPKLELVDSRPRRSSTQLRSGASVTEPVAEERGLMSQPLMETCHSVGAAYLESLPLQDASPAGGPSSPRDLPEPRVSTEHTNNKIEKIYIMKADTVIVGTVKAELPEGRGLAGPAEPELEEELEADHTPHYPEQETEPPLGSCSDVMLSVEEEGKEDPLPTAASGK
- EXPERIMENTAL_DETAILS: competitive FACS on L540 cells, unlabeled MAb 2.5 µg/ml; competitor: biotin-HeFi-I
REPORTED_METRIC: inhibition of the binding of biotin-MAb (%)
Numbers only, in %.

Which inhibition of the binding of biotin-MAb (%) reading was recorded for the binder T13 MAb (antibody, V domains shown) VH: QVQLQQSGAELAKPGASVKMSCKASGYTFTTYWMHWVKQRPGQGLEWIGYINPSTGYTDYNEKFKDKATLTADKSSSTAYMQLSSLTSEDSAVYYCVRRGSYDGNPFAYWGQGTLVSVSA VL: DIVMTQSHKFMSTSVGDRVTITCKASQDVSTAVAWYQQKPGHSPKLLIYWASTRHTGVPDRFTGSGSGTDYTLTISSVQVEDLALYYCQQHYSTPFTFGSGTKLEIKR ?
0

Data provenance: patent US20060193771A1
